Reference source for all entries: paper PMC7506551

target: T1, SWIRM domain of SMARCC2 (aa 423–518) (human, UniProt Q8TAQ2 423-518); experiment: ITC; conditions not shown; two-site binding model for SMARCC2 325-518 with SMARCB1 169-385; settings: both partners purified
T1 construct: SMARCC2/BAF170, human, SWIRM domain, residues 423-518; also called SMARCC2^(423–518); SMARCC2^SWIRM
T1 sequence (Q8TAQ2 423-518): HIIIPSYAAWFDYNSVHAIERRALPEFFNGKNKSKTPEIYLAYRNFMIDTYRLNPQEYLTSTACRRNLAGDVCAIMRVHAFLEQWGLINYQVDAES
Endpoint label: Kd

INSERT INTO results (binder, endpoint_label, measured_value) VALUES
  ('isolated Rpt1 motif of SMARCB1 (domain or fragment) DDHDPAVIHENASQPEVLVPIRLDMEIDGQKLRDAFTWNMNEKLMTPEMFSEILCDDLDLNPLTFVPAIASAIRQQIESYPTDS', 'Kd', '~120 nM');
